# target system: human GLP-1 receptor (human, UniProt P43220 24-463)
# assay overview: cell-based or functional assay
Please respond with reported EC50, CreLuc reporter, 0.5% hP for every item in the list.
Answers are plain numbers, in nM.

1. YXEGTFTSDYSIXLDKQAQXAFVRHLINKXTRQRY (Aib at 2, 13, 20, 30; Lys29 epsilon-amino: C18DA-gGlu-gGlu-gGlu-gGlu-gGlu-gGlu-eLys; C-terminal amide) [Compound 105] = 0.3

Batch lookup, EC50, CreLuc reporter, 0.5% hP per entry.
1. YXEGTFTSDYSIXLEKQAQXAFVRHLINKXTRQXY (Aib at 2, 13, 20, 30; dOR at 34; Lys29 epsilon-amino: C18DA-gGlu-gGlu-gGlu-gGlu-gGlu; C-terminal amide) [Compound 96]
2. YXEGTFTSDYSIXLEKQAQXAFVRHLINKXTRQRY (Aib at 2, 20, 30; aMeL at 13; Lys29 epsilon-amino: C18DA-gGlu-gGlu-gGlu-gGlu-gGlu-gGlu-eLys; C-terminal amide) [Compound 119]

Key:
0.9
0.1

Ref: patent US20250382344A1
